The reported measurements were obtained from the NIST ThermoML archive (doi:10.1016/j.jct.2015.07.035).

test: refractive index (Na D-line) (dimensionless); conditions: 298.2 K; 101.33 kPa; Liquid; Standard Abbe refractometry
PARAMETER MEASURED: refractive index

COMPOUND	OBSERVED
Clc1ccccc1	1.52165
CCCCCCCCCCO	1.43554
CC(O)c1ccccc1 (stereo not given)	1.52467
CC(C)CC(=O)O	1.40124
c1ccc(COCc2ccccc2)cc1	1.56019

----------
conditions: 298.2 K; 101.33 kPa; Liquid; Vibrating tube method
PARAMETER MEASURED: mass density (kg/m3)

MOLECULE	mass density (kg/m3)
CC(C)CC(=O)O [3-methylbutanoic acid]	921.34
Clc1ccccc1 [chlorobenzene]	1101.08
c1ccc(COCc2ccccc2)cc1 [dibenzyl ether]	1039.32
CC(O)c1ccccc1 (stereo not given) [1-phenylethanol]	1006.48
CCCCCCCCCCO [decan-1-ol]	826.41
